- Measured target: human recombinant CYP1A1 (Homo sapiens)
- Sequence (P04798 whole entry): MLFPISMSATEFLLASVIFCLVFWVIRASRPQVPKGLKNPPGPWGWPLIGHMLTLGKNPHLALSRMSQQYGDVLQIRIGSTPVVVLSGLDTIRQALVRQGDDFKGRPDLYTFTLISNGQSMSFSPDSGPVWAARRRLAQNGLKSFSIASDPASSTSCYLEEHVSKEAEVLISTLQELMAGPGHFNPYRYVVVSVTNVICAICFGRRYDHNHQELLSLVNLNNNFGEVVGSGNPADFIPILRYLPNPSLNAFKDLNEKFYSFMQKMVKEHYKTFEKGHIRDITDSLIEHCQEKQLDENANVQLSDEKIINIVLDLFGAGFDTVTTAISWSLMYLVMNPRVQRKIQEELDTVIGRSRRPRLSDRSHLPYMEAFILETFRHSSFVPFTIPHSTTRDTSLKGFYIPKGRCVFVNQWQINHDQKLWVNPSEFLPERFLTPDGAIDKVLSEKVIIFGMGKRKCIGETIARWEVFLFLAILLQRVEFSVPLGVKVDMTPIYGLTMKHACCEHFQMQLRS
- Procedure summary: EROD activity of microsomes containing human recombinant CYP1A1
- Type: biochemical
- Condition description: IC50, inhibition of CYP1A1-mediated EROD activity, human recombinant CYP1A1 2.5 nM, 7-ethoxyresorufin 0.5 μM, NADPH 0.4 mM, 5 min pre-incubation
log10(IC50) reference
Attribute measured: log10(IC50) (log10 of the value in µM)

molecule=O=C1C=CC(=O)c2c1ccc1c2ccc2ccccc21 reported_result=0.79
molecule="O=C1c2ccccc2-c2cccc3cccc1c23 [7H-BAO, 7H-benz[de]anthracene-7-one]" reported_result=-0.11
molecule="O=c1c2cccc3ccc4cccc1c4c32 [4H-CPO, 4H-Cyclopenta[def]phenanthrene-4-one]" reported_result=-0.49
molecule="O=C1c2ccccc2C(=O)c2c1ccc1ccccc21 [7,12-BAQ, benz[a]anthracene-7,12-quinone]" reported_result=-1.43
molecule=O=C1c2ccccc2-c2ccccc21 reported_result=0.48
molecule=Cc1cc2c(cc1C)C(=O)c1ccccc1C2=O reported_result=0.32
